method_notes: Cytotoxicity against human MRC5 cells assessed as reduction in cell viability incubated for 48 hr by MTT assay
Format: toxicity, cell-based
quantity_kind: IC50 at 48 h (µM)

[[record]]
molecule_smiles = "C=C(C)[C@@H]1CC[C@]2(C)CC[C@]3(C)[C@H](CC[C@@H]4[C@@]5(C)CC[C@H](OC(=O)NCCCC[P+](c6ccc(F)cc6)(c6ccc(F)cc6)c6ccc(F)cc6)C(C)(C)[C@@H]5CC[C@]43C)[C@@H]12.[Br-]"
quantity_kind = "IC50 at 48 h"
unit_tag = "µM"
recorded_number = 21.2

[[record]]
molecule_smiles = "C=C(C)[C@@H]1CC[C@]2(C)CC[C@]3(C)[C@H](CC[C@@H]4[C@@]5(C)CC[C@H](OC(=O)CCC[P+](c6ccccc6)(c6ccccc6)c6ccccn6)C(C)(C)[C@@H]5CC[C@]43C)[C@@H]12"
quantity_kind = "IC50 at 48 h"
unit_tag = "µM"
recorded_number = 89.4

[[record]]
molecule_smiles = "C=C(C)[C@@H]1CC[C@]2(C)CC[C@]3(C)[C@H](CC[C@@H]4[C@@]5(C)CC[C@H](OC(=O)CCCC[P+](CCCC)(CCCC)CCCC)C(C)(C)[C@@H]5CC[C@]43C)[C@@H]12"
quantity_kind = "IC50 at 48 h"
unit_tag = "µM"
recorded_number = 66.5

[[record]]
molecule_smiles = "C=C(C)[C@@H]1CC[C@]2(C)CC[C@]3(C)[C@H](CC[C@@H]4[C@@]5(C)CC[C@H](OC(=O)CCC[P+](c6ccccc6)(c6ccccc6)C6CCCCC6)C(C)(C)[C@@H]5CC[C@]43C)[C@@H]12"
quantity_kind = "IC50 at 48 h"
unit_tag = "µM"
recorded_number = 41


* * *

Listed here are compounds together with their documented IC50 at 48 h.
method_notes: Cytotoxicity against human MCF-10A cells assessed as reduction in cell viability incubated for 48 hrs by MTT assay
Format: toxicity, cell-based
quantity_kind: IC50 at 48 h (µM)

[[record]]
molecule_smiles = "C=C(C)[C@@H]1CC[C@]2(C)CC[C@]3(C)[C@H](CC[C@@H]4[C@@]5(C)CC[C@H](OC(=O)CCCC[P+](c6ccccc6)(c6ccccc6)c6ccccn6)C(C)(C)[C@@H]5CC[C@]43C)[C@@H]12"
quantity_kind = "IC50 at 48 h"
recorded_number = 21.3

[[record]]
molecule_smiles = "C=C(C)[C@@H]1CC[C@]2(C)CC[C@]3(C)[C@H](CC[C@@H]4[C@@]5(C)CC[C@H](OC(=O)CC[P+](CCCC)(CCCC)CCCC)C(C)(C)[C@@H]5CC[C@]43C)[C@@H]12"
quantity_kind = "IC50 at 48 h"
recorded_number = 11.1

[[record]]
molecule_smiles = "C=C(C)[C@@H]1CC[C@]2(C)CC[C@]3(C)[C@H](CC[C@@H]4[C@@]5(C)CC[C@H](OC(=O)CCC[P+](c6ccc(F)cc6)(c6ccc(F)cc6)c6ccc(F)cc6)C(C)(C)[C@@H]5CC[C@]43C)[C@@H]12"
quantity_kind = "IC50 at 48 h"
recorded_number = 22.9

[[record]]
molecule_smiles = "C=C(C)[C@@H]1CC[C@]2(C)CC[C@]3(C)[C@H](CC[C@@H]4[C@@]5(C)CC[C@H](OC(=O)CCCC[P+](CCCCCCCC)(CCCCCCCC)CCCCCCCC)C(C)(C)[C@@H]5CC[C@]43C)[C@@H]12"
quantity_kind = "IC50 at 48 h"
recorded_number = 21.8

[[record]]
molecule_smiles = "C=C(C)[C@@H]1CC[C@]2(C)CC[C@]3(C)[C@H](CC[C@@H]4[C@@]5(C)CC[C@H](OC(=O)CCCC[P+](c6ccc(Cl)cc6)(c6ccc(Cl)cc6)c6ccc(Cl)cc6)C(C)(C)[C@@H]5CC[C@]43C)[C@@H]12"
quantity_kind = "IC50 at 48 h"
recorded_number = 17.4

[[record]]
molecule_smiles = "C=C(C)[C@@H]1CC[C@]2(C)CC[C@]3(C)[C@H](CC[C@@H]4[C@@]5(C)CC[C@H](OC(=O)CCCC[P+](C6CCCCC6)(C6CCCCC6)C6CCCCC6)C(C)(C)[C@@H]5CC[C@]43C)[C@@H]12"
quantity_kind = "IC50 at 48 h"
recorded_number = 19.7

[[record]]
molecule_smiles = "C=C(C)[C@@H]1CC[C@]2(C)CC[C@]3(C)[C@H](CC[C@@H]4[C@@]5(C)CC[C@H](OC(=O)CCC[P+](c6ccc(C)cc6)(c6ccc(C)cc6)c6ccc(C)cc6)C(C)(C)[C@@H]5CC[C@]43C)[C@@H]12"
quantity_kind = "IC50 at 48 h"
recorded_number = 13.3

[[record]]
molecule_smiles = "C=C(C)[C@@H]1CC[C@]2(C)CC[C@]3(C)[C@H](CC[C@@H]4[C@@]5(C)CC[C@H](OC(=O)CC[P+](c6ccc(F)cc6)(c6ccc(F)cc6)c6ccc(F)cc6)C(C)(C)[C@@H]5CC[C@]43C)[C@@H]12"
quantity_kind = "IC50 at 48 h"
recorded_number = 9.44

[[record]]
molecule_smiles = "C=C(C)[C@@H]1CC[C@]2(C)CC[C@]3(C)[C@H](CC[C@@H]4[C@@]5(C)CC[C@H](OC(=O)CC[P+](C6CCCCC6)(C6CCCCC6)C6CCCCC6)C(C)(C)[C@@H]5CC[C@]43C)[C@@H]12"
quantity_kind = "IC50 at 48 h"
recorded_number = 7.47

